B1: H2-Kb / F4 (parent complex)
chain 1: QQQVRQSPQSLTVWEGETAILNCSYEDSTFNYFPWYQQFPGEGPALLISIRSVSDKKEDGRFTIFFNKREKKLSLHITDSQPGDSATYFCAAMSNYNVLYFGSGTKLTVEP
chain 2: ETAVFQTPNYHVTQVGNEVSFNCKQTLGHDTMYWYKQDSKKLLKIMFSYNNKQLIVNETVPRRFSPQSSDKAHLNLRIKSVEPEDSAVYLCASSARQNSPLYFAAGTRLTVT
chain 3: not shown
chain 4: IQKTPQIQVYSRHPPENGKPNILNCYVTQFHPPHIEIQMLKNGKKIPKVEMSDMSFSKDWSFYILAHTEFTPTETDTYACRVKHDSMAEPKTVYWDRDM
chain 5: SIINFEKL

# Variants of: B1
# assay-text: % of reporter cells activated (NFAT-GFP), raw; also: test concentration or dose not given here
Reported ratio to parent by item:

In the examples that follow, each entry is paired with its recorded ratio to parent.
mutation-id | measured-metric | result
chain 5 E6I | ratio to parent | 0.00942
chain 5 E6H | ratio to parent | 0.0263
chain 5 E6T | ratio to parent | 0.0219

State its ratio to parent for this variant: chain 5 K7F 0.726

State its ratio to parent for this variant: chain 5 E6Q 0.0246
